# protocol-summary: small-molecule microarray binders of probe aShh, primary screen, biochemical, biotinylated probe, 635/667 nm fluorescence (AID 1114);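 note: probe is biotin-labelled aShh protein from a stem cell growth factor screen; measures binding of labelled protein to compounds printed on the slide; score merges feature fluorescence at 667 nm with signal-to-noise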
# run-conditions: higher = more signal
composite z-score for assorted molecules
Quick one: just the number, no unit, thanks!

Please review the following examples before continuing.
• C=CCC(OC(C)=O)[C@@H]1[C@@H](N(Cc2ccc(-c3cccc(C(F)(F)F)c3)o2)C(=O)Cc2ccc(OC)cc2)c2cc(OCCCO)ccc2N1C(=O)Cc1ccc2ccccc2c1 (stereo not given in full) = -0.206
• NC(=O)[C@H]1[C@@H]2C(=O)O[C@@H](c3ccccc3)[C@@H](c3ccccc3)N2[C@@H](c2ccc(O)cc2)[C@]12C(=O)Nc1ccccc12 = -0.214
• O=C1[C@@]23C=C(Br)[C@H](C[C@@H]2COC3)[C@@]12CO2 = -0.0396
• CCOC(=O)C=Cc1cc(F)ccc1O = 0.0469
• C=C(CCCC)C(=O)CC[C@H](OC(=O)c1ccccc1-c1ccccc1C(=O)O)c1ccccc1OCCO = 0.318

I would be grateful if you could share the reported composite z-score for C=CC[C@H](OC(=O)Nc1ccc(SC)cc1)c1ccc(OCCO)cc1 .
0.0188

I would be grateful if you could share the reported composite z-score for COC(=O)C(CC#Cc1ccc2c(c1)[C@]1(C(=O)N2)[C@H](c2ccc(OCCO)cc2)N2[C@H](c3ccccc3)[C@H](c3ccccc3)OC(=O)[C@H]2[C@@H]1C(=O)N1CCN(c2ncccn2)CC1)C(=O)OC .
0.214

I would be grateful if you could share the reported composite z-score for C=CCN1C(=O)[C@]2(O[C@H](CCO)[C@@H]([Si](C)(C)c3ccc(OC)cc3)[C@@H]2C)c2cc(NC(=O)c3ccc(OC)cc3)ccc21 .
-0.0553

I would be grateful if you could share the reported composite z-score for COCCCNC(=O)[C@@]1(c2ccc([N+](=O)[O-])cc2)CC(=O)N(CC23CC4CC(CC(C4)C2)C3)[C@@H]1c1ccc(CO)cc1I .
0.337

I would be grateful if you could share the reported composite z-score for CCCNC(=O)[C@@]1(Sc2ccc(C)cc2)CC(=O)N(C2CCCCC2)[C@@H]1c1ccc(CO)cc1I .
0.768

I would be grateful if you could share the reported composite z-score for C=C(COC)C(=O)CC[C@H](OC(C)=O)c1ccc(OCCO)cc1 .
-0.0011

I would be grateful if you could share the reported composite z-score for CC(CO)N1C(=O)[C@@H]2[C@H]3C(=O)OCC=C[C@H]3OC23C=CCN(c2ccc(Cl)cc2)C(=O)[C@@H]13 (stereo not given in full) .
1.71

I would be grateful if you could share the reported composite z-score for O=C1OCCC/C=C\[C@H]2OC34C=CCN(c5ccc6ccccc6c5)C(=O)[C@H]3N(CCCO)C(=O)[C@@H]4C12 (stereo not given in full) .
0.184

I would be grateful if you could share the reported composite z-score for COCCOC(=O)N1C(=O)[C@@]2(c3cc(C#CC4(O)CCCCCC4)ccc31)[C@H](c1ccc(OCCO)cc1)N1[C@H](c3ccccc3)[C@H](c3ccccc3)OC(=O)[C@H]1[C@@H]2C(=O)Nc1nc2ccccc2s1 .
0.214

I would be grateful if you could share the reported composite z-score for CN(C)C(=O)[C@@]1(Cc2ccccc2N=[N+]=[N-])N=C(c2ccc(OCCCO)cc2)O[C@H]1c1ccccc1 .
-0.0022

---

# protocol-summary: A549 lung cancer cell viability effects, profiling panel, resazurin fluorescence, 24 h, PK04 Diversity Set (AID 1171); note: test concentration not given here
# run-conditions: higher = more signal, called active from +8 up or from −8 down
z-score for assorted compounds
Quick one: just the number, no unit, thanks!

Please review the following examples before continuing.
• [N-]=[N+]=Nc1ccccc1C[C@]1(C(=O)O)N=C(c2ccc(OCCCO)cc2)O[C@H]1c1ccccc1 = -0.605
• O=C(NCCN1CCOCC1)[C@@H]1c2ccccc2C(=O)N(Cc2ccccc2)[C@H]1c1ccc(CO)cc1 = 1.59
• CC(=O)n1cc(C(O)C2C=CC3C(=O)N(c4ccccc4)C(=O)C3N2Nc2ccc(C(C)C)cc2)c2ccccc21 (configuration not stated) = 0.169
• C=CCC(OC(C)=O)[C@@H]1[C@@H](N(Cc2cc3ccccc3o2)C(=O)c2ccc(-c3ccccc3)cc2)c2cc(OCCCO)ccc2N1C(=O)Cc1ccc(OC)cc1 (some centres not stated) = 0.0443
• COc1ccc(C(O)C2C=CC3C(=O)N(c4ccccc4)C(=O)C3N2Nc2ccc(C(C)C)cc2)c2ccccc12 (configuration not stated) = -0.64

I would be grateful if you could share the reported z-score for CC(C)CCC[C@@H](C)[C@H]1CC[C@@]2(C)C3=C(CC[C@]12C)[C@@]1(C)CC[C@H](OC(=O)c2ccccc2)C(C)(C)C1CC3 (some centres not stated) .
0.774

I would be grateful if you could share the reported z-score for Cc1cccc([C@H]2C[C@H]3C(I)=C[C@@H]2C(=O)[C@]32CO2)c1 .
-0.109

---

composite z-score for assorted molecules
# subject-of-test: Focal adhesion kinase 1 (Homo sapiens) (UniProt Q05397)
# Sequence (Q05397 whole entry, looked up): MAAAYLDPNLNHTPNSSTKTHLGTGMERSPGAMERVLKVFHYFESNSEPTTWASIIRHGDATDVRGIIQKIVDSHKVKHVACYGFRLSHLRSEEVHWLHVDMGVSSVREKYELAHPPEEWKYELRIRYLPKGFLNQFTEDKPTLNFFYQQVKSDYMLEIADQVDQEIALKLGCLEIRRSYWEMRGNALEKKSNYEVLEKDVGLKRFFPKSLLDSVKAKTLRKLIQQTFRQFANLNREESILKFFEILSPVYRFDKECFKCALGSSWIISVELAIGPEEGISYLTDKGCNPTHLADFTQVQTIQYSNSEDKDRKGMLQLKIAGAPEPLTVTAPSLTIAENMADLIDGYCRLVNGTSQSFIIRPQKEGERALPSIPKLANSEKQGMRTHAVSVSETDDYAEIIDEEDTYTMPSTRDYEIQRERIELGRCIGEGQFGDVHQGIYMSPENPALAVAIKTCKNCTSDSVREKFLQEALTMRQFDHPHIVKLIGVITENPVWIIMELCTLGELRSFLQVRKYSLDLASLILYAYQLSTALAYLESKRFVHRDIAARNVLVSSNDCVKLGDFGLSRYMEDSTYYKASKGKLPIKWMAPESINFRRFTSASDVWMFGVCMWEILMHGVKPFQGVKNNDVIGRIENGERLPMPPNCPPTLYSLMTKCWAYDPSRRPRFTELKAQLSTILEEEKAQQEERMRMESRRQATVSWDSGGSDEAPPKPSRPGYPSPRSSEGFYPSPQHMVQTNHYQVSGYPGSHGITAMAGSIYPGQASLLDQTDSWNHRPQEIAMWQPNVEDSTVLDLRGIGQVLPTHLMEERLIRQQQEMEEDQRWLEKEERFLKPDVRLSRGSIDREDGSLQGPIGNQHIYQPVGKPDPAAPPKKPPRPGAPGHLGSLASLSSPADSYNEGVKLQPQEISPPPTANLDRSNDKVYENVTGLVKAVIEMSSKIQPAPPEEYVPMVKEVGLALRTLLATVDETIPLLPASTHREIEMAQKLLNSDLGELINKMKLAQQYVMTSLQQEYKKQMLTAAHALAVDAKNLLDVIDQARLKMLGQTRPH
# protocol-summary: small-molecule microarray binders of FAK, primary screen, biochemical, 635/667 nm fluorescence, BSA, DTT (AID 1130);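 note: composite of spot emission at 667 nm and signal to noise over triplicate slides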
# run-conditions: PTK2 binding, 635 nm fluorescence, higher = more signal
Quick one: just the number, no unit, thanks!

Please review the following examples before continuing.
• COCCCNC(=O)[C@@H]1c2ccccc2C(=O)N(C2Cc3ccccc3C2)[C@H]1c1ccc(CO)cc1 = 0.407
• Cc1ccccc1C(O)C1C=CC2C(=O)NC(=O)C2N1Nc1ccc(Cl)cc1Cl (centres undefined) = 0.276
• O=C1C[C@@](C(=O)NCC(F)(F)F)(c2ccc([N+](=O)[O-])cc2)[C@@H](c2ccc(CO)cc2)N1CC12CC3CC(CC(C3)C1)C2 = 0.0423

Next item in the queue.
I would be grateful if you could share the reported composite z-score for CC(C)N1CC=CC23O[C@@H]4/C=C\CCCOC(=O)C4[C@H]2C(=O)N(CCCCCCO)[C@@H]3C1=O (some centres undefined) .
0.0835

---

# protocol-summary: PSAC antagonists in infected red cells, primary screen, cell-based, P. falciparum Indochina, OD700, 2 h (AID 1155);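 note: lysis reports solute entry through the parasite surface anion channel PSAC; channel blockers reduce lysis of infected cells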
# run-conditions: P. falciparum Indochina infected erythrocytes, osmotic lysis OD700; higher = more signal, called active from +8 up or from −8 down
z-score for assorted compounds
Quick one: just the number, no unit, thanks!

Please review the following examples before continuing.
* CN(C)CCCCCCNC(=O)[C@@H]1C[C@@H]2C(=O)N[C@@H](CCCCN)C(=O)N2[C@@H]1c1ccc(O)cc1 | -0.111
* Cc1ccccc1C(O)C1C=CC2C(=O)NC(=O)C2N1Nc1ccc(Cl)cc1Cl (centres undefined) | 1.35

I would be grateful if you could share the reported z-score for NC(=O)[C@H]1[C@@H]2C(=O)O[C@@H](c3ccccc3)[C@@H](c3ccccc3)N2[C@@H](c2ccc(O)cc2)[C@]12C(=O)Nc1ccccc12 .
1.23

I would be grateful if you could share the reported z-score for [N-]=[N+]=Nc1ccccc1C[C@]1(C(=O)NCc2ccccc2)COC(c2ccc(OCCCO)cc2)=N1 .
30.8

---

# System: Chordin-like protein 2 (CHRDL2)
# protocol-summary: CHRDL2 small-molecule binders, primary screen, biochemical, small-molecule microarray, 635 nm fluorescence (AID 1126);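 note: printed compound slides probed with Chrdl2 protein at 4 µg/mL for 1 h at 4 C; score merges 667 nm emission intensity with signal to noise over three replicate slides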
# run-conditions: small-molecule microarray binding, fluorescence 635 nm; higher = more signal
composite z-score for assorted compounds
Quick one: just the number, no unit, thanks!

- COCCOC(=O)N1C(=O)[C@@]2(c3cc(C#CC4=CCCCC4)ccc31)[C@H](C(=O)N1CCCCCCC1)[C@H]1C(=O)O[C@H](c3ccccc3)[C@H](c3ccccc3)N1[C@@H]2c1ccc(OCCO)cc1: 0.652
- CC1CC/C=C\[C@H]2OC34C=CCN(CCN5CCOCC5)C(=O)[C@H]3N(C(C)CO)C(=O)[C@@H]4C2C(=O)O1 (some centres undefined): -0.231
- [N-]=[N+]=NCc1ccccc1[C@@H]1OC(c2ccc(OCCCO)cc2)=N[C@]1(Cc1ccccc1N=[N+]=[N-])C(=O)NCCN1CCOCC1: 0.32
- C=C(/C(=C/C[C@@H](OC(=O)c1ccncc1)c1cccc(OCCO)c1)c1cnc2ccccc2c1)C(C)C: 1.24
- C=CCN1C(=O)[C@]2(O[C@H](CCO)[C@@H]([Si](C)(C)c3ccc(OC)cc3)[C@@H]2C)c2cc(N3C(=O)COc4ccccc43)ccc21: -0.153

I would be grateful if you could share the reported composite z-score for CN1C(=O)C2C=CC(C(O)c3ccc(I)cc3)N(Nc3ccccc3)C2C1=O (centres undefined) .
0.569

I would be grateful if you could share the reported composite z-score for O=C1O[C@H](c2ccccc2)[C@H](c2ccccc2)N2[C@H]1[C@@H](C(=O)O)[C@]1(C(=O)Nc3ccc(C#CC4(O)CCCCCC4)cc31)[C@H]2c1ccc(O)cc1 .
0.224

The values you see were collected from PubChem BioAssay.
